Assay: TOR pathway LAP4-GFP level changes – S. cerevisiae, multiplex flow cytometry, primary screen (AID 1873)
Conditions: S. cerevisiae LAP4-GFP expression, 3 h, at 10 µM, hits give high values
Results filed as inconclusive are left out.
The compounds listed here are annotated with their GFP response vs DMSO.
outcome-measure: GFP response vs DMSO (%)

{"compound": "COc1ccc(C2NC(C(=O)O)Cc3c2[nH]c2ccccc32)cc1CN1CCN(c2ccc(F)cc2)CC1 (stereo unspecified)", "observed-measurement": 102}
{"compound": "O=C(NCCc1c[nH]c2ccccc12)c1cccnc1", "observed-measurement": 113}
{"compound": "CCCC(CCC)C(=O)OC1C[C@H]2CC[C@@H](C1)[N+]2(C)C (stereo partly specified)", "observed-measurement": 80.9}
{"compound": "O=C1[C@@H]2[C@H](Cc3ccc(O)cc3)N[C@]3(C(=O)Nc4ccccc43)[C@@H]2C(=O)N1c1ccc(F)cc1", "observed-measurement": 90.1}
{"compound": "CCC(CO)NCCNC(CC)CO (stereo unspecified)", "observed-measurement": 87.5}
{"compound": "CC1Cc2ccccc2N1NC(=O)c1ccc(Cl)c(S(N)(=O)=O)c1 (stereo unspecified)", "observed-measurement": 106}
